Numbers sourced from paper PMC10397247.

- system-name: T1, 4H3378-AA
- T1 chain: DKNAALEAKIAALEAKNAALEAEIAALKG
- protocol-description: two-hybrid library CCmax;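 further: natural log of median RNA to DNA barcode read ratio; higher means stronger binding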
Items are presented alongside their recorded interaction score.
measurement-label: interaction score

[[record]]
binder = "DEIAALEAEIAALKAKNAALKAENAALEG [4H123-AA]"
observed_measurement = -1.89

[[record]]
binder = "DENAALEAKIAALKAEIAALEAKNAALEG [4H1351-AA]"
observed_measurement = -1.5

[[record]]
binder = "DKIAALEAENAALEAENAALEAKIAALKG [4H2198-AA]"
observed_measurement = -1.47

[[record]]
binder = "DKNAALEAKIAALEAKNAALEAEIAALKG [4H3378-AA]"
observed_measurement = 1.2

